FYI, the data here is from patent US12662489B2.

assayed-target: MTHFD1 recombinant human enzyme (Homo sapiens, UniProt P11586)
Sequence (P11586 2-291 limits assumed): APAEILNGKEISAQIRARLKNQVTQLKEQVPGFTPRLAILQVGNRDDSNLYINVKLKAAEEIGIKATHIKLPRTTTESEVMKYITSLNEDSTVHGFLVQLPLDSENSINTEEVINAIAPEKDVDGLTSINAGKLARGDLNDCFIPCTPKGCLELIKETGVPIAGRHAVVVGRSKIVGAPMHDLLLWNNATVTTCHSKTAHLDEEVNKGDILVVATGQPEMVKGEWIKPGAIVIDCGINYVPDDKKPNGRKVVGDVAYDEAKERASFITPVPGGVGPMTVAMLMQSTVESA
test-description: MTHFD1 inhibition assay (NAD(P)H-Glo luminescence)
applied-conditions: MTHFD1 IC50, recombinant human enzyme 200 nM, NADP, band
Please respond with reported IC50 for every item in the list.

Q) Suppose we examine the molecule COC[C@H]1CN(c2cc(C)c3c4c(c(=O)oc3c2)CN(C(=O)c2ccc(C(=O)NS(=O)(=O)N3CCCC3)c(OC3CCC3)c2F)CC4)CCN1C ; what IC50 value has been reported?
A) 100 to 1000 nM

Q) Find the recorded IC50 belonging to COC[C@H]1CN(c2cc(C)c3c4c(c(=O)oc3c2C)CN(C(=O)c2ccc(C(=O)NS(=O)(=O)N3CCCC3)cc2)CC4)CCN1C and report it.
A) 1000 to 5000 nM

Q) Can you look up the measured IC50 of CCOc1cc(C(=O)N2CCc3c(c(=O)oc4c(C)c(N5CCN(C)[C@@H](COC)C5)cc(C)c34)C2)ccc1C(=O)NS(=O)(=O)N1C2CCC1CC2 for me?
A) 100 to 1000 nM

Q) Dear colleague, I am looking for the recorded IC50 of the following molecule: COC[C@H]1CN(c2cc(C)c3c4c(c(=O)oc3c2C)CN(C(=O)c2ccc(C(=O)NS(=O)(=O)N3CCCC3)c(Cl)c2F)CC4)CCN1C
A) 100 to 1000 nM

Q) For COC[C@H]1CN(c2cc(C)c3c4c(c(=O)oc3c2C)CN(C(=O)c2ccc(C(=O)NS(=O)(=O)C3(C)CC3)c(N(C)C3CCC3)c2F)CC4)CCN1C , what is its reported IC50?
A) 10 to 100 nM

Q) Entry under review: COC[C@H]1CN(c2cc(C)c3c4c(c(=O)oc3c2C)CN(C(=O)c2cc(N(C)C)c(C(=O)NS(=O)(=O)N3CCC(C(F)(F)F)CC3)cc2F)CC4)CCN1C . Reported IC50?
A) 100 to 1000 nM

Q) What value of IC50 has been recorded for this entry: COC[C@H]1CN(c2ccc3c4c(c(=O)oc3c2C)CN(C(=O)c2ccc(C(=O)NS(=O)(=O)N(C)C)c(N3C5CCC3CC5)c2)CC4)CCN1C
A) 1 to 10 nM

Q) Any idea what IC50 was measured for COC[C@H]1CN(c2ccc3c4c(c(=O)oc3c2C)CN(C(=O)c2cc(OC3CCCC3)c(C(=O)NS(=O)(=O)N3CCCC3)c(C(F)(F)F)c2)CC4)CCN1C ?
A) 1000 to 5000 nM

Q) Quick check: IC50 of CCOc1c(C(=O)NS(=O)(=O)N2C3CCC2CC3)ccc(C(=O)N2CCc3c(c(=O)oc4c(C)c(N5CCN(C)[C@@H](COC)C5)cc(C)c34)C2)c1F ?
A) 100 to 1000 nM

Q) Reported IC50, molecule COC[C@H]1CN(c2cc(C)c3c4c(c(=O)oc3c2C)CN(C(=O)c2cc(N(C)C)c(C(=O)NS(=O)(=O)N3CCC[C@H]3COC)cc2F)CC4)CCN1C : ____
A) 100 to 1000 nM

Q) Return reported IC50; argument: COC[C@H]1CN(c2cc(C)c3c4c(c(=O)oc3c2C)CN(C(=O)c2ccc(C(=O)NS(=O)(=O)C3(C)CC3)c(N3CCC3)c2)CC4)CCN1C
A) 1 to 10 nM

Q) Please report the recorded IC50 for COC[C@H]1CN(c2cc(C)c3c4c(c(=O)oc3c2C)CN(C(=O)c2ccc(C(=O)NS(=O)(=O)N(C)C(C)C)c(O[C@@H]3C[C@@H]5C[C@@H]5C3)c2F)CC4)CCN1C .
A) 1 to 10 nM

Q) Requested read-out: IC50. Entry: COC[C@H]1CN(c2ccc3c4c(c(=O)oc3c2Cl)CN(C(=O)c2ccc(C(=O)NS(=O)(=O)N3CCCC3)c(OC3CCC3)c2F)CC4)CCN1C
A) 1 to 10 nM

Q) Suppose we examine the molecule COC[C@H]1CN(c2ccc3c4c(c(=O)oc3c2Cl)CN(C(=O)c2ccc(C(=O)NS(=O)(=O)N(C)C)c(O[C@@H]3C[C@@H]5C[C@@H]5C3)c2F)CC4)CCN1C ; what IC50 value has been reported?
A) 1 to 10 nM

Q) Reported IC50, molecule COC[C@H]1CN(c2cc(C)c3c4c(c(=O)oc3c2C)CN(C(=O)c2cc(OC3CCCC3)c(C(=O)NS(=O)(=O)N(C)C)c(C(F)(F)F)c2)CC4)CCN1C : ____
A) 1000 to 5000 nM

Q) What value of IC50 has been reported for the following molecule? COC[C@H]1CN(c2cc(C)c3c4c(c(=O)oc3c2C)CN(C(=O)c2cc3c(c(C(=O)NS(=O)(=O)N5CCCC5)c2)OC2(CCC2)O3)CC4)CCN1C
A) > 5000 nM

Q) Report IC50 for COC[C@H]1CN(c2cc(Cl)c3c4c(c(=O)oc3c2C)CN(C(=O)c2cc(OC)c(C(=O)NS(=O)(=O)N3CC5CC5C3)cc2F)CC4)CCN1C (stereo partly shown) please.
A) 100 to 1000 nM

Q) Reported IC50, molecule COC[C@H]1CN(c2ccc3c4c(c(=O)oc3c2C)CN(C(=O)c2cc(N3CC5CC5C3)c(C(=O)NS(=O)(=O)N3CCCC3)c(C(F)(F)F)c2)CC4)CCN1C (stereo partly shown) : ____
A) > 5000 nM

Q) // query IC50 value for entry COC[C@H]1CN(c2ccc3c4c(c(=O)oc3c2C)CN(C(=O)c2cc(Cl)c(C(=O)NS(=O)(=O)N3CCCC3)c(N3CC5CC5C3)c2)CC4)CCN1C (stereo partly shown)
A) 100 to 1000 nM

Q) // lookup IC50 for COC[C@H]1CN(c2cc(C)c3c4c(c(=O)oc3c2C)CN(C(=O)c2ccc(C(=O)NS(=O)(=O)N(C)C)c(N3CCCC3)c2)CC4)CCN1C
A) 1 to 10 nM

Q) # query: IC50 of entry COC[C@H]1CN(c2ccc3c4c(c(=O)oc3c2C)CN(C(=O)c2cc(OC3CCCC3)c(C(=O)NS(=O)(=O)C3(C)CC3)c(C(F)(F)F)c2)CC4)CCN1C
A) 1000 to 5000 nM

Q) Entry COC[C@H]1CN(c2ccc3c4c(c(=O)oc3c2C)CN(C(=O)c2ccc(C(=O)NS(=O)(=O)C3(C)CC3)c(N(C)C)c2F)CC4)CCN1C has what IC50?
A) 100 to 1000 nM
